Would you mind telling me the reported cell viability of each entry?
Test system: MOLM14;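 note: after 48 h exposure read by CellTiter-Glo luminescence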
Test: cell viability relative to vehicle control; higher = less cytotoxic
Conditions: 10 µM; SRSF2 genotype: SRSF2 wt/wt
Structures can show the parent of a compound that is named as a salt.
Numbers only, in %.

# example entries with known answers
QUERY: Tell me reported cell viability for S=c1nc[nH]c2nc[nH]c12 [6-Mercaptopurine (6-MP) Monohydrate] , tested with MOLM14.
RESULT: 71.8

QUERY: Observed cell viability on MOLM14 for C[C@H]1[C@H](OC(=O)CCC(=O)O)O[C@@H]2O[C@@]3(C)CC[C@H]4[C@H](C)CC[C@@H]1[C@@]24OO3 [Artesunate] , please.
RESULT: 28.3

QUERY: Observed cell viability on MOLM14 for "CCOc1ccc(Cc2cc([C@@H]3O[C@H](SC)[C@@H](O)[C@H](O)[C@H]3O)ccc2Cl)cc1" , please.
RESULT: 89.5

QUERY: Notebook entry, MOLM14 assay: cell viability of "O=C(NCCN1CCOCC1)c1ccc(Cl)cc1" = ?
RESULT: 105

QUERY: Form field - read-out: cell viability; system: MOLM14; submitted item: N#CC(c1ccc(Cl)cc1)c1c(Cl)cc(-n2ncc(=O)[nH]c2=O)cc1Cl (stereo unspecified);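 note: after 48 h exposure read by CellTiter-Glo luminescence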
RESULT: 86.3

QUERY: # query: cell viability | item Cc1[nH]c(/C=C2\C(=O)Nc3ccccc32)c(C)c1CCC(=O)O [Orantinib (TSU-68, SU6668)] | system: MOLM14;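 note: after 48 h exposure read by CellTiter-Glo luminescence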
RESULT: 89.2

QUERY: What cell viability appears in the records for this compound with MOLM14? COc1cc2c(cc1O)C[C@H]1c3cc(O)c(OC)cc3CC[N+]1(C)C2 (stereo partly specified) [Phellodendrine chloride]
RESULT: 95.9

QUERY: Request: cell viability, test system MOLM14, entry N=C(N)c1ccc(OCCCCCOc2ccc(C(=N)N)cc2)cc1 [Pentamidine isethionate];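 note: after 48 h exposure read by CellTiter-Glo luminescence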
RESULT: 70.5

QUERY: Lab request: please report cell viability under test system MOLM14 for "C[C@@H]1COCCN1c1cc(C2(S(C)(=O)=O)CC2)nc(-c2cccc3[nH]ccc23)n1"
RESULT: 7.72

QUERY: Fill in the recorded cell viability for this compound, with MOLM14 as test system: CC[C@@H](CO)NCCN[C@@H](CC)CO [Ethambutol HCl]
RESULT: 102

Provide cell viability for all items below, preserving their order.
1. COC(=O)Nc1nc2cc(Sc3ccccc3)ccc2[nH]1
2. CC(C)n1nc(-c2cc3cc(O)ccc3[nH]2)c2c(N)ncnc21
3. CC[C@@](C)(Nc1ccnc(-c2c[nH]c3ncccc23)n1)C(=O)NCC(F)(F)F
4. CO[C@H]1C[C@H](O[C@H]2[C@H](C)O[C@@H](O[C@@H]3/C(C)=C/C[C@@H]4C[C@@H](C[C@]5(C=C[C@H](C)[C@@H](C6CCCCC6)O5)O4)OC(=O)[C@@H]4C=C(C)[C@@H](O)[C@H]5OC/C(=C\C=C\[C@@H]3C)[C@]54O)C[C@@H]2OC)O[C@@H](C)[C@@H]1O

RESULT:
[4.51, 9.03, 106, 29.9]

Parameters: items (list). Returns: cell viability for each item.
1. NC(=O)c1cccc2[nH]c(-c3ccc(C4CCCN4)cc3F)nc12 (stereo unspecified)
2. Oc1ccc2ccccc2c1SSc1c(O)ccc2ccccc12
3. Cc1nc(-c2ccc(OCC(C)C)c(C#N)c2)sc1C(=O)O
4. CO[C@@H](C)Cn1c(=O)n(C)c2cnc3ccc(-c4cncc(C(C)(C)O)c4)cc3c21
5. Cc1ccc([C@@H]2O[C@H](CO)[C@@H](O)[C@H](O)[C@H]2O)cc1Cc1ccc(-c2ccc(F)cc2)s1

RESULT:
1: 33; 2: 29.6; 3: 105; 4: 19.2; 5: 102

Could you tell me cell viability for each of these compounds? They are listed below.
1. C=C[C@]1(C)C[C@@H](OC(=O)CS[C@@H]2C[C@H]3CC[C@@H](C2)N3C)[C@]2(C)[C@H](C)CC[C@]3(CCC(=O)[C@H]32)[C@@H](C)[C@@H]1O
2. COc1ccc2c(c1O)-c1c(O)c(OC)cc3c1[C@H](C2)[N+](C)(C)CC3 [Magnoflorinechloride]

RESULT:
1. 84.5
2. 102
